melting point for assorted molecules

Example molecules with recorded melting point:
cpd smiles: Cc1oc(-c2ccc(C(F)(F)F)cc2)nc1CCOc1ccc(C[C@H](NCc2ccc(F)cc2)C(=O)O)cc1
melting point: 202 to 204 °C
--
cpd smiles: CCOC(=O)[C@H](Cc1ccc(OCCc2nc(-c3ccccc3)oc2C)cc1)NCc1ccc(F)cc1.CS(=O)(=O)O
melting point: 144 °C

For this molecule ( Cc1oc(-c2ccccc2)nc1CCOc1ccc(C[C@H](NCc2ccc(F)c(F)c2)C(=O)O)cc1 ), measured melting point is 202 to 204 °C

For this molecule ( Cc1oc(-c2ccccc2)nc1CCOc1ccc(C[C@H](NCc2c(F)cc(F)cc2F)C(=O)O)cc1 ), measured melting point is 168 to 170 °C

For this molecule ( Cc1oc(-c2ccccc2)nc1CCOc1ccc(C[C@H](NCc2ccc(Cl)cc2)C(=O)O)cc1 ), measured melting point is 197 to 199 °C

For this molecule ( Cc1oc(-c2ccccc2)nc1CCOc1ccc(C[C@H](NCc2cccc(F)c2F)C(=O)O)cc1 ), measured melting point is 173 to 175 °C

For this molecule ( Cc1oc(-c2ccccc2)nc1CCOc1ccc(C[C@H](NCc2ccc(F)cc2)C(=O)[O-])cc1.[Na+] ), measured melting point is 179 to 181 °C

For this molecule ( Cc1oc(-c2ccccc2)nc1CCOc1ccc(C[C@H](NCc2ccccc2F)C(=O)O)cc1 ), measured melting point is 191 to 193 °C

For this molecule ( Cc1oc(-c2ccccc2)nc1CCOc1ccc(C[C@@H](C(=O)O)N(C)Cc2ccc(F)cc2)cc1 ), measured melting point is 142 to 145 °C

For this molecule ( Cc1oc(-c2ccccc2)nc1CCOc1ccc(C[C@H](NCc2ccccc2Cl)C(=O)O)cc1 ), measured melting point is 143 to 145 °C

For this molecule ( Cc1sc(N2CCOCC2)nc1CCOc1ccc(C[C@H](NCc2ccc(F)cc2)C(=O)O)cc1 ), measured melting point is 192 to 194 °C

For this molecule ( Cc1oc(-c2ccccc2)nc1CCOc1ccc(C[C@H](NCc2ccc(F)cc2F)C(=O)O)cc1 ), measured melting point is 190 to 192 °C

For this molecule ( Cc1oc(-c2ccccc2)nc1CCOc1ccc(C[C@H](NCc2ccc(F)cc2)C(=O)O)cc1.Cl ), measured melting point is 198 to 200 °C

For this molecule ( Cc1oc(-c2ccccc2)nc1CCOc1ccc(C[C@H](NCc2ccc(Br)cc2)C(=O)O)cc1 ), measured melting point is 196 to 199 °C

For this molecule ( Cc1ccc(-c2nc(CCOc3ccc(C[C@H](NCc4ccc(F)cc4)C(=O)O)cc3)c(C)o2)cc1 ), measured melting point is 196 to 198 °C
